- Method: Rifalazil solubility in surfactants and surfactant mixtures
- Assay type: physicochemical
- Stated conditions: aqueous with cosolvent or surfactant or cyclodextrin, thermodynamic from solid; in Lauroglycol 90; 24 hrs equilibration
Measured attribute: solubility at 24 h (mg/mL)

{"Compound": "CO[C@H]1/C=C/O[C@@]2(C)Oc3c(C)c(O)c4c(=O)c(c5oc6cc(N7CCN(CC(C)C)CC7)cc(O)c6nc-5c4c3C2=O)NC(=O)/C(C)=C\\C=C\\[C@H](C)[C@H](O)[C@@H](C)[C@@H](O)[C@@H](C)[C@H](OC(C)=O)[C@@H]1C [Rifalazil]", "Measured attribute": "solubility at 24 h", "Readout value": 40}
